- assay details: Solubility of the compound in DMSO
- Assay type: physicochemical
measured property: solubility

Use the examples below as a reference point.
[
  {
    "structure": "Cc1nc2oc(-c3ccccc3)nc2c2[nH]c(=O)ccc12",
    "solubility": "Soluble"
  },
  {
    "structure": "COc1cc(-n2nnc3c4[nH]c(=O)ccc4c(C)nc32)cc(OC)c1OC",
    "solubility": "Insoluble"
  },
  {
    "structure": "COc1ccc(-c2ccc3c(C)nc4c(nnn4-c4cc(OC)c(OC)c(OC)c4)c3n2)cc1",
    "solubility": "Insoluble"
  },
  {
    "structure": "COc1ccc(-c2nc3c(nc(C)c4ccc(-c5ccccc5)nc43)o2)cc1",
    "solubility": "Soluble"
  },
  {
    "structure": "COc1ccc(-n2nnc3c4nc(-c5ccccc5OC)ccc4c(C)nc32)cc1",
    "solubility": "Soluble"
  }
]

Request: Query solubility for `COc1ccc(-c2nc3c(nc(C)c4ccc(-c5ccccc5OC)nc43)o2)cc1`
Result: Insoluble

Request: Give the value of solubility reported for the following: `COc1ccc(-n2nnc3c4[nH]c(=O)ccc4c(C)nc32)cc1`
Result: Soluble

Request: Please supply the value of reported solubility for the item `COc1ccc(-c2ccc3c(C)nc4oc(-c5ccccc5)nc4c3n2)cc1`
Result: Insoluble
